Origin of measurements: PubChem BioAssay (NCI)

System: KM12 colon
Assay: NCI-60 one-dose screen, 48 h (100 = growth as untreated, 0 = no growth, -100 = all killed)
Details: 10 µM unless noted
The panel holds about 83,000 compounds, 20% with a hit somewhere; the sample as a whole holds those more often.
Consider the following compounds; for each one, report its growth.
Provide only the numeric value, understood in %.

What measured growth is associated with CC1(C)CN(c2cnc(C(=O)Nc3cc(F)cc4cccnc34)cn2)CCN1 on KM12 colon? 91.7

// repeat for COc1ccccc1/C=C1\Oc2cc(OCCCN3CCCC3)ccc2C1=O and report 98.3

// repeat for NC(=O)c1cccc(-c2ccccc2N2CCCCC2)c1 and report 99.1

// repeat for CN1CCN(c2ccc(NC3=C(Cl)C(=O)c4ncccc4C3=O)cc2C#N)CC1 and report 105

// repeat for Nc1cc(N)c2cccnc2c1O and report 81.6

// repeat for Cc1nc2sc(C(=O)Nc3ccccc3)c(N)c2cc1C(=O)c1ccc(C(F)(F)F)cc1 and report 108

====

Test system: M14 melanoma
Experiment: NCI-60 one-dose screen, 48 h
Conditions: 10 µM unless noted
About 83,000 compounds went through this panel and 20% of them were active in at least one assay; those are over-represented in the sample as a whole. Activity calls are given as the source filed them. The calls were made as follows: active = growth percent below 10; inactive = the rest.
A correct response names exactly one class from YES (active), NO (inactive)

Could you please tell me the result logged for CC1=CC[C@@H]2CC[C@]3(C)[C@H](CC[C@@H]4[C@@]5(C)CCCNC(C)(C)[C@@H]5CC[C@]43C)[C@H]2[C@@H]1C in this assay? NO

// repeat for CC1=CC2(C)/C=C(C)/C=C\CC(O)/C=C3/C=CC(=C4C(=O)OC2(CC1C)C4=O)OC3 (stereo not given) and report YES

// repeat for CC[N+](CC)(CCCC(C)[N+]1(Cc2ccccc2)C(C)=CC=C1C)Cc1ccccc1 (stereo not given) and report NO

// repeat for CCCCCCOc1ccc(/C=N/Nc2cc(C)nc3ccc(Br)cc23)cc1 and report YES

// repeat for CN1C(=O)N(C)C2NC(N/N=C/c3ccccc3)=NC21 (stereo not given) and report NO

====

System: SK-MEL-2 melanoma
Test: NCI-60 one-dose screen, 48 h
Details: 10 µM unless noted
This is part of a sample that, as a whole, favours compounds with a hit. Of some 83,000 tested, about 20% had one in any assay. Calls of active or inactive are those of the source. How the source made its calls: active means growth percent below 10; inactive means the rest.
A correct response names exactly one class from TRUE for active, FALSE for inactive

Could you please tell me the result logged for CSc1nnc2c(=O)n(C)c(=O)n(C)c2n1 in this assay? TRUE

// repeat for Clc1ccc(C2CC(c3cccc(Nc4ccncc4)c3)=NN2c2ccccc2)cc1 (stereo not drawn) and report FALSE

// repeat for C=C1C(=O)O[C@H]2[C@H]1CC/C(CNC(=O)/C=C/c1ccccc1F)=C\CC[C@@]1(C)O[C@@H]21 and report FALSE

// repeat for C[C@]12CCc3nc(Nc4cccc(O)c4)sc3C1=CC[C@@H]1[C@@H]2CC[C@]2(C)/C(=N\NC(N)=S)CC[C@@H]12 and report FALSE

// repeat for COc1cc2nc(Cc3ccc(C)cc3)[nH]c(=O)c2cc1OC and report FALSE

// repeat for C=C(C)[C@@H]1CC[C@]2(C(=O)NCCCN(CCC#N)CCC#N)CC[C@]3(C)[C@H](CC[C@@H]4[C@@]5(C)CCC(=O)C(C)(C)[C@@H]5CC[C@]43C)[C@@H]12 and report FALSE

// repeat for COc1cc2nnn3c4ncccc4c(N=O)c3c2cc1OC and report FALSE

// repeat for CNC(=O)c1c(NC(=O)c2ccc(C(C)C)cc2)sc2c(CN(C)C)c(O)ccc12 and report FALSE

// repeat for C=CCn1c(SCC(=O)Nc2ccc(C(=O)/C=C/c3cc(OC)c(OC)c(OC)c3)cc2)nnc1-c1cc(OC)c(OC)c(OC)c1 and report FALSE

// repeat for CC1=CC[C@@H]2CC[C@]3(C)[C@H](CC[C@@H]4[C@@]5(C)CCCNC(C)(C)[C@@H]5CC[C@]43C)[C@H]2[C@@H]1C and report FALSE

// repeat for COc1ccc(NS(=O)(=O)c2ccc(C)cc2)c([N+](=O)[O-])c1 and report FALSE

// repeat for COc1cc(C2CC(c3cccc(Nc4ccncc4)c3)=NN2C(C)=O)cc(OC)c1OC (stereo not drawn) and report FALSE

// repeat for O=CNc1cc(Cl)cc(Cl)c1 and report FALSE

// repeat for O=C(NNc1nc(Cl)nc(N2CCN(C(c3ccccc3)c3ccccc3)CC2)n1)c1ccccc1 and report TRUE

// repeat for Cc1ccc(-c2c(Br)c(OC(=O)CO[C@@H]3C[C@H](C)CC[C@H]3C(C)C)c(-c3ccc(C)cc3C)c(Br)c2OC(=O)CO[C@H]2C[C@@H](C)CC[C@@H]2C(C)C)c(C)c1 and report FALSE

// repeat for O=C(Cc1ccc(/C=C/C(=O)c2ncc[nH]2)cc1)Nc1ccc(C(F)(F)F)cc1 and report FALSE

// repeat for O=C(/C=C\c1ccc(OCCCCCC[P+](c2ccccc2)(c2ccccc2)c2ccccc2)cc1)c1ccc2c(c1)OCCO2 and report TRUE

// repeat for Cc1ccccc1C(c1ccccc1)c1ccccc1C and report FALSE

====

Tested on: SK-MEL-2 melanoma
Assay: NCI-60 one-dose screen, 48 h
Details: 10 µM unless noted
The panel holds about 83,000 compounds, 20% with a hit somewhere; the sample as a whole holds those more often. Activity calls are given as the source filed them. How the source made its calls: active means growth percent below 10; inactive means the rest.
A correct response names exactly one class from active, inactive

Could you please tell me the result logged for O=C(O)c1cn(C2CC2)c2cc(N3CCN(C(=O)C[n+]4cccc5ccccc54)CC3)c(F)cc2c1=O in this assay? inactive

// repeat for CC(C)(C#N)N1CCN(c2ccccc2Cl)CC1 and report inactive

// repeat for CC1=CC2(C)/C=C(C)/C=C\CC(O)/C=C3/C=CC(=C4C(=O)OC2(CC1C)C4=O)OC3 (stereo not given) and report active

// repeat for CC(C)(C)OC(=O)N1C/C(=C\c2ccoc2)C(=O)/C(=C/c2ccoc2)C1 and report inactive

// repeat for COc1ccc(C(=O)c2cc3c(N)c(C(=O)Nc4cccc(Br)c4C)sc3nc2C)cc1 and report inactive

// repeat for CCCN=C(N)c1ccc(NC(=O)c2ccc(C(=O)Nc3ccc(C(N)=NCCC)cc3)cc2)cc1 and report inactive

// repeat for CN(C)C(=O)OCc1nc2c(N3CCOCC3)nc(-c3ccccc3)nc2n1C and report active

// repeat for CC(=O)N1N=C(c2cccc(Nc3ccncc3)c2)CC1c1ccccc1 (stereo not given) and report inactive

// repeat for Cc1cn(-c2cc(C(=O)Nc3cccc(C#Cc4cccc5[nH]nc(N)c45)c3)cc(C(F)(F)F)c2)cn1 and report active

// repeat for CCCNC(=O)Oc1ccc(/C(=C(\C)c2ccccc2)c2ccc(OCCN3CCCCC3)cc2)cc1 and report inactive

// repeat for COc1ccc(NC(=O)c2sc3nc(C)c(C(=O)c4ccc(OC)cc4)cc3c2N)cc1 and report inactive

// repeat for CC(=O)N1c2ccccc2NC2=C(C(=O)N(C)C2(C)C)C1C (stereo not given) and report active

// repeat for CC[C@H](C)[C@@H]1NC(=O)[C@H](Cc2ccc(O)cc2)N(C)C(=O)[C@H](Cc2ccccc2)NC(=O)CN(C)C(=O)[C@@H]2CCCN2C(=O)[C@@H](Cc2ccccc2)N(C)C(=O)[C@H](CC(C)C)NC1=O and report active

// repeat for O=C(Nc1ccc2ncnc(Nc3ccc(Oc4cccc(F)c4)c(Cl)c3)c2c1)c1ccc(CN2CCOCC2)cc1 and report inactive

// repeat for Cc1ccc2nc3c(cc2c1)CSc1nnc(-c2ccc[nH]c2=S)n1N3 and report inactive

// repeat for O=C(CNCCO)Nc1ccc2ncnc(Nc3ccc(OCc4cccc(F)c4)c(Cl)c3)c2c1 and report inactive

// repeat for COc1cc2c(cc1[N+](=O)[O-])-c1ccc([N+](=O)[O-])cc1/C2=N\O and report inactive

// repeat for CCC(C)C(N)C(=O)NNc1n[nH]c(=S)n1N (stereo not given) and report inactive

// repeat for O=C(NCCc1ccccn1)OCc1nc2nc(Cl)nc(N3CCOCC3)c2[nH]1 and report active

// repeat for Cn1c(=O)c2[nH]c(CCCc3nc4c([nH]3)c(=O)n(C)c(=O)n4C)nc2n(C)c1=O and report inactive

====

System: TK-10 renal
Experiment: NCI-60 one-dose screen, 48 h (100 = growth as untreated, 0 = no growth, -100 = all killed)
Settings: 10 µM unless noted
The panel holds about 83,000 compounds, 20% with a hit somewhere; the sample as a whole holds those more often.
Values of growth greater than or equal to 70% map to 1.0; values below map to 0.0.

Quick check: does C=C(C)[C@@H]1CC[C@]2(C(=O)O)CC[C@]3(C)[C@H](CC[C@@H]4[C@@]5(C)C[C@@H](CC#Cc6ccc(Br)cc6)C(=O)C(C)(C)[C@@H]5CC[C@]43C)[C@@H]12 have growth greater than or equal to 70%? 0.0

// repeat for O=C1NC(=O)C(=Cc2cn(Cc3ccccn3)c3ccccc23)C(=O)N1 and report 0.0

// repeat for CC(=O)N1N=C(c2cccc(Nc3ccncc3)c2)CC1c1ccccc1 (stereo not given) and report 1.0

// repeat for COc1ccc(C(O)c2cc3c(N)c(C(=O)Nc4cccc(OC)c4)sc3nc2C)cc1 (stereo not given) and report 0.0

// repeat for COc1ccc2c(c1)OC1=C(C(=O)OC1)C2c1cc(OC)c(OC)c(OC)c1 (stereo not given) and report 0.0

// repeat for Cc1cc(C)n(Nc2nc3ccccc3[nH]c2=O)c(=O)c1C#N and report 1.0

// repeat for COc1ccc2c(/C=C3/C(=O)NC(=S)NC3C)cc(=O)oc2c1 (stereo not given) and report 1.0

// repeat for CCOC(=O)C1CC(=O)c2cc(OC)c(OC)cc2C1 (stereo not given) and report 1.0

// repeat for N/C(=N\N=C\c1cc2ccccc2[nH]1)N/N=C/c1cc2ccccc2[nH]1 and report 1.0

// repeat for Clc1ccc(C2CC(c3cccc(Nc4ccncc4)c3)=NN2c2ccc(Cl)cc2)cc1 (stereo not given) and report 0.0

// repeat for Cc1ccc2nc3c(cc2c1)CSc1nnc(-c2ccc[nH]c2=S)n1N3 and report 1.0

// repeat for Cn1c(=O)c2[nH]c(CCCc3nc4c([nH]3)c(=O)n(C)c(=O)n4C)nc2n(C)c1=O and report 1.0

// repeat for CCN1C(=O)N(CC)C2C1NN=c1s/c(=C3\C(=O)Nc4ccccc43)c(=O)n12 (stereo not given) and report 0.0

// repeat for CC(=O)Nc1ccc(S(=O)(=O)NC2CCCCC2)cc1 and report 1.0

// repeat for O=C(Nc1ccc(Nc2ncccn2)cc1)NC1C=c2ccccc2=CC1 (stereo not given) and report 1.0

// repeat for CN(C)C(C(N)=O)c1ccc(Cl)cc1 (stereo not given) and report 1.0

// repeat for CCCCCCCCN1C(=O)/C(=c2\sc3n(c2=O)C2C(NN=3)N(CC)C(=O)N2CC)c2ccccc21 (stereo not given) and report 1.0

// repeat for COc1ccc2c(c1)OC13Oc4cc(OC)ccc4C=C1CCCC3=C2 and report 0.0

// repeat for CC(C)(C)CC(C)(C)Nc1c(-c2ccc3c(c2)OCO3)nc2cnccn12 and report 1.0

// repeat for C/C(=C(/c1ccccc1)c1ccc(OCC(O)CNCCN2CCOCC2)cc1)c1ccccc1 (stereo not given) and report 1.0

// repeat for COc1ccc(/C=C2\COc3ccc(-c4ccccc4)cc3C2=O)cc1O and report 0.0

// repeat for c1ccc(-c2nn(-c3ccccc3)[n+](-c3cccc4ccccc34)n2)cc1 and report 0.0

// repeat for CN(C)C(=O)OCc1nc2c(N3CCOCC3)nc(-c3ccccc3)nc2n1C and report 0.0

// repeat for C=C(C)[C@@H]1CC[C@]2(C(=O)N3CCN(C)CC3)CC[C@]3(C)[C@H](CC[C@@H]4[C@@]5(C)CCC(=O)C(C)(C)[C@@H]5CC[C@]43C)[C@@H]12 and report 1.0

// repeat for COc1ccncc1C#Cc1cncc(C(=O)Nc2ccc(CN3CCN(C)CC3)c(C(F)(F)F)c2)c1 and report 0.0

// repeat for CCCc1cc2c(cc1Br)OCO2 and report 1.0

// repeat for CC[C@H](CC[C@@H](C)[C@H]1CC[C@H]2[C@@H]3CC=C4C[C@@H](OCCc5nn[nH]n5)CC[C@]4(C)[C@H]3CC[C@]12C)C(C)C and report 1.0

// repeat for O=CNc1cc(Cl)cc(Cl)c1 and report 1.0

// repeat for COc1cc(-c2cc(=O)oc3cc(O)ccc23)cc(OC)c1OC and report 1.0

// repeat for NC(=O)c1cccc(-n2ccc3cc(NC(=O)Nc4cc(C(F)(F)F)cc(C(F)(F)F)c4)ccc32)n1 and report 0.0

// repeat for CC(C)(C)OC(=O)N1C/C(=C\c2ccoc2)C(=O)/C(=C/c2ccoc2)C1 and report 1.0

// repeat for Cc1[nH]c(C(=O)Nc2ccccc2OCc2cccc(C(=O)NCCN)c2)c(Cl)c1Cl and report 1.0

// repeat for CC(C)(C#N)N1CCN(c2ccccc2Cl)CC1 and report 1.0

// repeat for O=C1/C(=C/c2ccc(O)cc2)COc2ccc(-c3ccccc3)cc21 and report 1.0

// repeat for c1cnc2nc3c(cc2c1)oc1ccccc13 and report 1.0

// repeat for Cn1/c(=N/NC(N)=S)ccc2ccccc21 and report 1.0

// repeat for CS(=O)(=O)Nc1cc(-c2ccc3ncnc(Nc4ccc5[nH]ncc5c4)c3c2)cnc1Cl and report 0.0

// repeat for O=C(Nc1cccc(C2=NCCN2)c1)c1ccc(OCCCOc2ccc(C(=O)Nc3cccc(C4=NCCN4)c3)cc2)cc1 and report 1.0

// repeat for O=C(NNc1nc(Cl)nc(N2CCN(C(c3ccccc3)c3ccccc3)CC2)n1)c1ccccc1 and report 1.0

// repeat for COc1cc(-c2nc3occn3c2-c2ccnc(NCCNS(=O)(=O)c3ccc(Cl)cc3)n2)ccc1F and report 1.0
